system: P388/0 cell lines; assay: Cytotoxicity assay, growth inhibition of P388/0 cells (Alamar Blue); assay type: cell-based; settings: 3 days incubation at 37° C., drug concentration inhibiting growth of cells by 50%
READOUT KIND: IC50 (nM)
Give the number; nM is assumed, so skip it.

Input line: Item `Nc1ccn([C@@H]2O[C@H](CO)[C@@H](O)[C@@H]2O)c(=O)n1` : provide IC50
Output line: 10
